System: Panc1005
Experiment: MTT growth inhibition, pancreatic cell line Panc1005
Format: cell-based
Conditions: MTT assay, 96 h treatment; average of three independent experiments
pIC50: −log10 of the molar value.
parameter.measured: pIC50

# count of solved cases: 2
{"molecule": "Nc1ccccc1C(=O)NC(=O)Nc1ccc(Oc2nccc(Br)n2)cc1", "pIC50": "< 5.00"}
{"molecule": "O=C(NC(=O)c1ccccc1[N+](=O)[O-])Nc1ccc(Oc2nccc(Br)n2)cc1", "pIC50": "< 5.00"}

Continue with the molecule presented below.
Which pIC50 is listed for Cc1cc(NC(=O)NC(=O)c2ccccc2N(C)C)ccc1Oc1ncc(Br)cn1 [Compound 1, reference compound] ?
5.30

====

Test system: Panc1
Test: MTT growth inhibition, pancreatic cell line Panc1
Format: cell-based
Settings: Homo sapiens, PANC-1; MTT assay, 96 h treatment; average of three independent experiments
parameter.measured: log10 IC50 (log10 of the value in µM)
Please note: log10 values; quantity IC50; unit µM.

# count of solved cases: 4
{"compound": "Nc1ccccc1OC=NOC=Nc1ccc(Sc2ncccn2)cc1", "study.system": "Panc1", "parameter.measured": "log10 IC50", "reported.measurement": 0.88}
{"compound": "Brc1cnc(Sc2ccc(N=CSN=COc3ccccc3)cc2)nc1", "study.system": "Panc1", "parameter.measured": "log10 IC50", "reported.measurement": 0.98}
{"compound": "Nc1ccccc1C(=O)NC(=O)Nc1ccc(Sc2ncc(Br)cn2)cc1", "study.system": "Panc1", "parameter.measured": "log10 IC50", "reported.measurement": -1.05}
{"compound": "O=C(NC(=O)c1ccccc1[N+](=O)[O-])Nc1ccc(Sc2ncc(Br)cn2)cc1", "study.system": "Panc1", "parameter.measured": "log10 IC50", "reported.measurement": -1.07}

Continue with the compound presented below.
Which log10 IC50 is listed for O=[N+]([O-])c1ccccc1OC=NOC=Nc1ccc([S+]([O-])c2ncc(Br)cn2)cc1 (stereo not shown) ?
0.81

====

Tested on: HS766
Test: MTT growth inhibition, pancreatic cell line HS766
Assay type: cell-based
Conditions: Homo sapiens, Hs 766; MTT assay, 96 h treatment; average of three independent experiments
parameter.measured: pIC50
On this scale, pIC50 is minus log10 of a concentration expressed in M (mol/L).

{"molecule": "O=C(NC(=O)c1ccccc1[N+](=O)[O-])Nc1ccc(Sc2ncc(Br)cn2)cc1", "study.system": "HS766", "parameter.measured": "pIC50", "reported.measurement": 7.06}
{"molecule": "O=[N+]([O-])c1ccccc1OC=NOC=Nc1ccc([S+]([O-])c2ncc(Br)cn2)cc1 (stereo not shown)", "study.system": "HS766", "parameter.measured": "pIC50", "reported.measurement": 5.19}
{"molecule": "Brc1cnc(Sc2ccc(N=CON=COc3ccccc3)cc2)nc1", "study.system": "HS766", "parameter.measured": "pIC50", "reported.measurement": 5.26}
{"molecule": "Nc1ccccc1C(=O)NC(=O)Nc1ccc(Sc2ncc(Br)cn2)cc1", "study.system": "HS766", "parameter.measured": "pIC50", "reported.measurement": 6.15}
{"molecule": "Brc1cnc(Sc2ccc(N=CSN=COc3ccccc3)cc2)nc1", "study.system": "HS766", "parameter.measured": "pIC50", "reported.measurement": 5.07}

Which pIC50 is listed for Nc1ccccc1OC=NOC=Nc1ccc(Sc2ncccn2)cc1 ?
5.10

Provenance of the data: patent US20090099218A1
